We begin with a simple list: items and their reported viability, T/C.
- Tested on: 598228-144-R-J1-PDC complex spheroids, viability
- assayNotes: Anticancer human tumor 598228-144-R-J1-PDC patient-derived serous endometrial adenocarcinoma cell line growth inhibition [CLK]
- protocolConditions: second compound 1 µM; first compound 1 µM; stronger effect = lower value

Give viability, T/C for the following compound: CC(Nc1ccc2c(c1)OCCn1cc(N3C(=O)OCC3C(F)F)nc1-2)C(N)=O (stereo not drawn) + CN1CCN(c2cc(C(=O)Nc3cc4cc(-c5cnn(C)c5)ccc4cn3)ccn2)CC1
0.6%

Give viability, T/C for the following compound: O=C(c1cc(Cc2n[nH]c(=O)c3ccccc23)ccc1F)N1CCN(C(=O)C2CC2)CC1 + CN1CCN(c2cc(C(=O)Nc3cc4cc(-c5cnn(C)c5)ccc4cn3)ccn2)CC1
1.57%

Shifting focus to the compound that follows.
Give viability, T/C for the following compound: CCc1c2c(nc3ccc(O)cc13)-c1cc3c(c(=O)n1C2)COC(=O)[C@]3(O)CC + CN1CCN(c2cc(C(=O)Nc3cc4cc(-c5cnn(C)c5)ccc4cn3)ccn2)CC1
4.75%

---

We begin with a simple list: items and their reported viability, T/C.
- System: 598228-144-R-J1-PDC complex spheroids, viability
- assayNotes: Anticancer human tumor 598228-144-R-J1-PDC cell line growth inhibition [CLK];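 further: spheroids exposed to compounds for seven days before readout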;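 on viability, T/C: 100% = DMSO vehicle control wells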
- protocolConditions: second compound 0.1 µM; first compound 0.00949 µM; stronger effect = lower value
Lab book: enter the figure in %, no units written.

Consider the reported viability, T/C for these molecules:
Give viability, T/C for the following molecule: C=CC(=O)Nc1cc(Nc2nccc(-c3cn(C)c4ccccc34)n2)c(OC)cc1N(C)CCN(C)C + CN1CCN(c2cc(C(=O)Nc3cc4cc(-c5cnn(C)c5)ccc4cn3)ccn2)CC1
116

Give viability, T/C for the following molecule: CC(C)CC(NC(=O)C(Cc1ccccc1)NC(=O)c1cnccn1)B(O)O (stereo unspecified) + CN1CCN(c2cc(C(=O)Nc3cc4cc(-c5cnn(C)c5)ccc4cn3)ccn2)CC1
0.57

Give viability, T/C for the following molecule: NC(=O)C(=Cn1cnc(-c2cc(C(F)(F)F)cc(C(F)(F)F)c2)n1)c1cncnc1 + CN1CCN(c2cc(C(=O)Nc3cc4cc(-c5cnn(C)c5)ccc4cn3)ccn2)CC1
114

Give viability, T/C for the following molecule: CC(C)CC(NC(=O)C(Cc1ccccc1)NC(=O)c1cnccn1)B(O)O (stereo unspecified) + CNC(=O)c1ccc(Nc2nc(OC3CCCC3)c3c(-c4ccc5nc(C)oc5c4)c[nH]c3n2)c(OC)c1
3.14

Give viability, T/C for the following molecule: NC(=O)C(=Cn1cnc(-c2cc(C(F)(F)F)cc(C(F)(F)F)c2)n1)c1cncnc1 + CNC(=O)c1ccc(Nc2nc(OC3CCCC3)c3c(-c4ccc5nc(C)oc5c4)c[nH]c3n2)c(OC)c1
101

More entries:
Give viability, T/C for the following molecule: C=CC(=O)Nc1cc(Nc2nccc(-c3cn(C)c4ccccc34)n2)c(OC)cc1N(C)CCN(C)C + CNC(=O)c1ccc(Nc2nc(OC3CCCC3)c3c(-c4ccc5nc(C)oc5c4)c[nH]c3n2)c(OC)c1
104

---

- System: 598228-144-R-J1-PDC complex spheroids, viability
- assayNotes: Anticancer human tumor 598228-144-R-J1-PDC cell line growth inhibition [CLK];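 further: spheroids exposed to compounds for seven days before readout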
- protocolConditions: curve of first compound; second compound 10 µM
quantityKind: IC50

Give IC50 for the following molecule: COc1ccc([C@@H](O)c2cc(-c3ncnc4cc(N5CCOCC5)ccc34)c(F)cc2Cl)nn1 + CN1CCN(c2cc(C(=O)Nc3cc4cc(-c5cnn(C)c5)ccc4cn3)ccn2)CC1
< 31.6 nM

Give IC50 for the following molecule: C#Cc1c(F)ccc2cc(O)cc(-c3ncc4c(N5CC6CCC(C5)N6)nc(OCC56CCCN5CC(F)C6)nc4c3F)c12 (stereo not drawn) + CN1CCN(c2cc(C(=O)Nc3cc4cc(-c5cnn(C)c5)ccc4cn3)ccn2)CC1
< 31.6 nM

Shifting focus to the molecule that follows.
Give IC50 for the following molecule: NC(=O)C(=Cn1cnc(-c2cc(C(F)(F)F)cc(C(F)(F)F)c2)n1)c1cncnc1 + CN1CCN(c2cc(C(=O)Nc3cc4cc(-c5cnn(C)c5)ccc4cn3)ccn2)CC1
< 9.49 nM

---

- System: 598228-144-R-J1-PDC complex spheroids, viability
- assayNotes: Anticancer human tumor 598228-144-R-J1-PDC cell line growth inhibition [CLK];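 further: spheroids exposed to compounds for seven days before readout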
- protocolConditions: curve of first compound; second compound 10 µM
We begin with a simple list: items and their reported IC50.

Give IC50 for the following compound: C=CC(=O)Nc1cc(Nc2nccc(-c3cn(C)c4ccccc34)n2)c(OC)cc1N(C)CCN(C)C + CN1CCN(c2cc(C(=O)Nc3cc4cc(-c5cnn(C)c5)ccc4cn3)ccn2)CC1
< 0.949 nM

Give IC50 for the following compound: CCN1CCN(Cc2ccc(Nc3ncc(F)c(-c4cc(F)c5nc(C)n(C(C)C)c5c4)n3)nc2)CC1 + CN1CCN(c2cc(C(=O)Nc3cc4cc(-c5cnn(C)c5)ccc4cn3)ccn2)CC1
< 3.16 nM

Shifting focus to the compound that follows.
Give IC50 for the following compound: CC(Nc1ccc2c(c1)OCCn1cc(N3C(=O)OCC3C(F)F)nc1-2)C(N)=O (stereo not drawn) + CN1CCN(c2cc(C(=O)Nc3cc4cc(-c5cnn(C)c5)ccc4cn3)ccn2)CC1
< 31.6 nM

---

We begin with a simple list: items and their reported IC50.
- System: 598228-144-R-J1-PDC complex spheroids, viability
- assayNotes: Anticancer human tumor 598228-144-R-J1-PDC cell line growth inhibition [CLK];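 further: spheroids exposed to compounds for seven days before readout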
- protocolConditions: curve of first compound; second compound 0.316 µM

Give IC50 for the following compound: CC(C)CC(NC(=O)C(Cc1ccccc1)NC(=O)c1cnccn1)B(O)O (stereo not drawn) + CN1CCN(c2cc(C(=O)Nc3cc4cc(-c5cnn(C)c5)ccc4cn3)ccn2)CC1
< 0.949 nM

Give IC50 for the following compound: C=CC(=O)Nc1cc(Nc2nccc(-c3cn(C)c4ccccc34)n2)c(OC)cc1N(C)CCN(C)C + CNC(=O)c1ccc(Nc2nc(OC3CCCC3)c3c(-c4ccc5nc(C)oc5c4)c[nH]c3n2)c(OC)c1
> 300 nM

More entries:
Give IC50 for the following compound: C#Cc1c(F)ccc2cc(O)cc(-c3ncc4c(N5CC6CCC(C5)N6)nc(OCC56CCCN5CC(F)C6)nc4c3F)c12 (stereo not drawn) + CNC(=O)c1ccc(Nc2nc(OC3CCCC3)c3c(-c4ccc5nc(C)oc5c4)c[nH]c3n2)c(OC)c1
> 10000 nM

---

- System: 598228-144-R-J1-PDC complex spheroids, viability
- assayNotes: Anticancer human tumor 598228-144-R-J1-PDC cell line growth inhibition [CLK];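 further: spheroids exposed to compounds for seven days before readout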;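 on viability, T/C: 100% = DMSO vehicle control wells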
- protocolConditions: second compound 10 µM; first compound 1 µM; stronger effect = lower value
Labelling field: enter rule met if recorded viability, T/C is less than 2%. Enter rule not met if it equals or exceeds that cut-off.

Here are 2 compounds together with their reported answers.
Below 2% on viability, T/C? Entry CCN1CCN(Cc2ccc(Nc3ncc(F)c(-c4cc(F)c5nc(C)n(C(C)C)c5c4)n3)nc2)CC1 + CNC(=O)c1ccc(Nc2nc(OC3CCCC3)c3c(-c4ccc5nc(C)oc5c4)c[nH]c3n2)c(OC)c1
rule not met

Below 2% on viability, T/C? Entry Nc1ccn(C2OC(CO)C(O)C2(F)F)c(=O)n1 (configuration not stated) + CN1CCN(c2cc(C(=O)Nc3cc4cc(-c5cnn(C)c5)ccc4cn3)ccn2)CC1
rule met

# next compound below
Below 2% on viability, T/C? Entry CC(CO)NC(=O)c1cc(-c2ccc(Cl)cc2)nn(-c2cnn(C)c2)c1=O (configuration not stated) + CN1CCN(c2cc(C(=O)Nc3cc4cc(-c5cnn(C)c5)ccc4cn3)ccn2)CC1
rule met

---

- Tested on: 598228-144-R-J1-PDC complex spheroids, viability
- assayNotes: Anticancer human tumor 598228-144-R-J1-PDC cell line growth inhibition [CLK]; active means viability on the fitted dose curve at most 10% of control; inactive means the rest;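 further: spheroids exposed to compounds for seven days before readout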
- protocolConditions: second compound 1 µM; first compound 1 µM
Thanks in advance; please answer with one of these: label 1 = active, label 0 = inactive

Here are 2 compounds together with their reported answers.
Please let me know the test result on file for CC(CO)NC(=O)c1cc(-c2ccc(Cl)cc2)nn(-c2cnn(C)c2)c1=O (stereo not drawn) + CN1CCN(c2cc(C(=O)Nc3cc4cc(-c5cnn(C)c5)ccc4cn3)ccn2)CC1 .
label 1

Please let me know the test result on file for C#Cc1c(F)ccc2cc(O)cc(-c3ncc4c(N5CC6CCC(C5)N6)nc(OCC56CCCN5CC(F)C6)nc4c3F)c12 (stereo not drawn) + CNC(=O)c1ccc(Nc2nc(OC3CCCC3)c3c(-c4ccc5nc(C)oc5c4)c[nH]c3n2)c(OC)c1 .
label 0

# next compound below
Please let me know the test result on file for CC1(C)CCC(CN2CCN(c3ccc(C(=O)NS(=O)(=O)c4ccc(NCC5CCOCC5)c([N+](=O)[O-])c4)c(Oc4cnc5[nH]ccc5c4)c3)CC2)=C(c2ccc(Cl)cc2)C1 + CNC(=O)c1ccc(Nc2nc(OC3CCCC3)c3c(-c4ccc5nc(C)oc5c4)c[nH]c3n2)c(OC)c1 .
label 0

Value source: PubChem BioAssay AID2060614
